- target desc: AMPK
- experiment description: AMPK activation, enzyme-linked immunosorbent assay
- Assay type: biochemical
- conditions: Table 8, compounds of Table 1
pEC50: −log10 of the molar value.
Measured pEC50 by item

O=C(NC1CCNCC1)c1ccnc(OC2CCN(c3ccc(C(F)(F)F)cc3)CC2)c1: 5.30 to 6.00
Cc1c(C(=O)NC2CCN(Cc3ccncc3)CC2)oc2cc(OC3CCN(c4ccc(C(F)(F)F)cc4)CC3)ccc12: > 7.00
N#Cc1ccc(CN2CCC(NC(=O)c3cncc(OC4CCN(c5ccc(C(F)(F)F)cc5)CC4)c3)CC2)cc1: > 7.00

Identify measured pEC50 associated with O=C(NC1CCN(C(=O)c2ccncc2)CC1)c1cc2cc(OC3CCN(c4ccc(C(F)(F)F)cc4)CC3)ccc2o1 > 7.00

Identify measured pEC50 associated with O=C(NC1CCN(Cc2ccc(OC(F)(F)F)cc2)CC1)c1cc2cc(O[C@@H]3CCN(Cc4ccc(OC(F)(F)F)cc4)C[C@H]3F)ccc2o1 > 7.00

Identify measured pEC50 associated with N#Cc1ccc(CN2CCC(NC(=O)c3cc4cc(O[C@@H]5CCN(Cc6ccc(OC(F)(F)F)cc6)C[C@H]5F)ccc4o3)CC2)cc1 > 7.00

Identify measured pEC50 associated with O=C(NC1CCNCC1)c1sc2cc(OC3CCN(c4ccc(C(F)(F)F)cc4)CC3)ccc2c1Cl < 5.00
